# TESTED_ON: T1, human CD73 (full length, on transfected CHOK1 cells) (human, UniProt P21589 27-549)
# T1 construct: whole, on cells; also called CHOK1-hCD73; hCD73
# T1 sequence (looked up): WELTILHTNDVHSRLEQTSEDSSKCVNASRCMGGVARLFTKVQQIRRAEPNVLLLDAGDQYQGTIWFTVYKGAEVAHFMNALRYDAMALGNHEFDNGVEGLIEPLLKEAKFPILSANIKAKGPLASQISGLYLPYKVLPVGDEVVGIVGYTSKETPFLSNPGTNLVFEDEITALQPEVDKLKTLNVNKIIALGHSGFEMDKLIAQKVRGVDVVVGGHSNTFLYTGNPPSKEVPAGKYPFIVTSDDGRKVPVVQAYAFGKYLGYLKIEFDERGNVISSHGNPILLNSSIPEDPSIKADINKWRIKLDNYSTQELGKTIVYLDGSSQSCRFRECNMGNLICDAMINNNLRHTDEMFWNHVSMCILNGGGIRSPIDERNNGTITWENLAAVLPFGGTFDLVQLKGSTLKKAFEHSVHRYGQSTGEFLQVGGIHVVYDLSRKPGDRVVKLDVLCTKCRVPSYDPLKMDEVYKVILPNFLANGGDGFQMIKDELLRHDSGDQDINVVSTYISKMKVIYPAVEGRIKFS
# PROTOCOL_DETAILS: FACS on CHOK1-hCD73 cells

>  <BINDER>
mAb020 (clone 24D6B4), murine anti-CD73 antibody (antibody, V domains shown, Purified from hybridoma supernatant) VH: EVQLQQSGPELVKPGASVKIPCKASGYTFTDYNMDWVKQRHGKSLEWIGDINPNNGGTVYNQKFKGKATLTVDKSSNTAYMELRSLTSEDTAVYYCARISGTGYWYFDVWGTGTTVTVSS VL: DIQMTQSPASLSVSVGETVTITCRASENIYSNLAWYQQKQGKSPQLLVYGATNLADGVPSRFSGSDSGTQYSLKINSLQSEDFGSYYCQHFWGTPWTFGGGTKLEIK

>  <UNITS_TEXT>
MFI

>  <MAX MFI>
7540

$$$$
>  <BINDER>
mAb030 (clone 42A5A7), murine anti-CD73 antibody (antibody, V domains shown, Purified from hybridoma supernatant; also called antibody 030) VH: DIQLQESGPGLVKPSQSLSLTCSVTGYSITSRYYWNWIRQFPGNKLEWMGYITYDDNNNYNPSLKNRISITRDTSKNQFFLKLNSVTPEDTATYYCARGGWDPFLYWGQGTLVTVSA VL: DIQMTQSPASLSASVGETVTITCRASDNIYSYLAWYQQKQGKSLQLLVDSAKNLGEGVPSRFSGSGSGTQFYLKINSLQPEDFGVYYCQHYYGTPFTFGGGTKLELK

>  <UNITS_TEXT>
MFI

>  <MAX MFI>
6440

$$$$
>  <BINDER>
mAb041 (clone 71E10B3), murine anti-CD73 antibody (antibody, V domains shown, Purified from hybridoma supernatant) VH: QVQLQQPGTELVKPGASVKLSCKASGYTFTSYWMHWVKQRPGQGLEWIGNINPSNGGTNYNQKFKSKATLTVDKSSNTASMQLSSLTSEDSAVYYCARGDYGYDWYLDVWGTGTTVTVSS VL: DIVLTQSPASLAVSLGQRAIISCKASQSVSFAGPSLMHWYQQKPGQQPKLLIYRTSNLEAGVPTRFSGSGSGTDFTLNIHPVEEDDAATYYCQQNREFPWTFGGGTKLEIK

>  <UNITS_TEXT>
MFI

>  <MAX MFI>
8160

$$$$
>  <BINDER>
mAb038 (clone 69C9E12), murine anti-CD73 antibody (antibody, V domains shown, Purified from hybridoma supernatant) VH: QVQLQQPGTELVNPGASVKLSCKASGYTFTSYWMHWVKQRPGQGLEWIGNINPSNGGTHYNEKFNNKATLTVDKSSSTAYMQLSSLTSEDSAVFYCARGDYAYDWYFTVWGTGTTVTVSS VL: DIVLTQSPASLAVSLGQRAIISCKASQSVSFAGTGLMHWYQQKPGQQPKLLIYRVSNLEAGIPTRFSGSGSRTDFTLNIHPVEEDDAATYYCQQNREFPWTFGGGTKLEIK

>  <UNITS_TEXT>
MFI

>  <MAX MFI>
5230

$$$$
>  <BINDER>
mAb065 (clone 125A4E10), murine anti-CD73 antibody (antibody, V domains shown, Purified from hybridoma supernatant) VH: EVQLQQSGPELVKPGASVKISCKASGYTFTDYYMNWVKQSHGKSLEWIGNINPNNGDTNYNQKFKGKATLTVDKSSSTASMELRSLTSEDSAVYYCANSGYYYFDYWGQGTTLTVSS VL: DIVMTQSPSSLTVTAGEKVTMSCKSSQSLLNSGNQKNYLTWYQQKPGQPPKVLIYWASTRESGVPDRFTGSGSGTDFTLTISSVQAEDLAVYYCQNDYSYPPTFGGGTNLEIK

>  <UNITS_TEXT>
MFI

>  <MAX MFI>
4650

$$$$
